# experiment-description: self-splicing fitness, log relative to wild type (ln ratio); higher = more splicing; Tetrahymena group I intron in knt gene, E. coli kanamycin selection, DiMSum; sequences stand for … in CUCUCU…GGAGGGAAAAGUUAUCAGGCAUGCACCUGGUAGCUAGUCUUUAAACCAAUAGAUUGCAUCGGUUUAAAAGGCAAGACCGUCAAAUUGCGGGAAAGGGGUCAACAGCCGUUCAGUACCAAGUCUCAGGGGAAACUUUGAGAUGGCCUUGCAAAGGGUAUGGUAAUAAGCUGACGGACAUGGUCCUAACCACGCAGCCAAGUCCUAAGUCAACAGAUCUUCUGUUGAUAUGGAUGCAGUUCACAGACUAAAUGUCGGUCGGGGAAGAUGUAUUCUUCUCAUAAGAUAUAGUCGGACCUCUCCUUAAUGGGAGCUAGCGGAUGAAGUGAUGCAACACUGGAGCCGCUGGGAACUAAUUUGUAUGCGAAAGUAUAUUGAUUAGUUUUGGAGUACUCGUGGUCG;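 also: selection with 25 µg/mL kanamycin versus none on LB agar overnight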
# condition: 30 °C
Categorize each record by its self-splicing fitness (ln) using I = under -3, II = from -3 up to -1, III = -1 and over

As a guide, the following entries are already answered.
CUGUAGCAAUAUUACGUACA    I
AGUCAGCAAUAUUACGAGUG    II
UAUCAGCAAUAUUACGUGCC    I
AUAGAGCAAUAUUACGUUCU    II
GUCGAGCAAUAUUACGUGUG    III
CUCGAGCAAUAUUACGCCGG    I

Query: GET /class?item= GGACAGCAAUAUUACGUCUG
Response: II

Query: Try this sequence next: GUGCAGCAAUAUUACGGGGG
Response: I
